Ref: ChEMBL document CHEMBL5150064

target.desc: Phosphatidylinositol 4,5-bisphosphate 3-kinase catalytic subunit alpha isoform (Homo sapiens, UniProt P42336, H1047R)
Sequence (P42336 whole entry H1047R, canonical isoform): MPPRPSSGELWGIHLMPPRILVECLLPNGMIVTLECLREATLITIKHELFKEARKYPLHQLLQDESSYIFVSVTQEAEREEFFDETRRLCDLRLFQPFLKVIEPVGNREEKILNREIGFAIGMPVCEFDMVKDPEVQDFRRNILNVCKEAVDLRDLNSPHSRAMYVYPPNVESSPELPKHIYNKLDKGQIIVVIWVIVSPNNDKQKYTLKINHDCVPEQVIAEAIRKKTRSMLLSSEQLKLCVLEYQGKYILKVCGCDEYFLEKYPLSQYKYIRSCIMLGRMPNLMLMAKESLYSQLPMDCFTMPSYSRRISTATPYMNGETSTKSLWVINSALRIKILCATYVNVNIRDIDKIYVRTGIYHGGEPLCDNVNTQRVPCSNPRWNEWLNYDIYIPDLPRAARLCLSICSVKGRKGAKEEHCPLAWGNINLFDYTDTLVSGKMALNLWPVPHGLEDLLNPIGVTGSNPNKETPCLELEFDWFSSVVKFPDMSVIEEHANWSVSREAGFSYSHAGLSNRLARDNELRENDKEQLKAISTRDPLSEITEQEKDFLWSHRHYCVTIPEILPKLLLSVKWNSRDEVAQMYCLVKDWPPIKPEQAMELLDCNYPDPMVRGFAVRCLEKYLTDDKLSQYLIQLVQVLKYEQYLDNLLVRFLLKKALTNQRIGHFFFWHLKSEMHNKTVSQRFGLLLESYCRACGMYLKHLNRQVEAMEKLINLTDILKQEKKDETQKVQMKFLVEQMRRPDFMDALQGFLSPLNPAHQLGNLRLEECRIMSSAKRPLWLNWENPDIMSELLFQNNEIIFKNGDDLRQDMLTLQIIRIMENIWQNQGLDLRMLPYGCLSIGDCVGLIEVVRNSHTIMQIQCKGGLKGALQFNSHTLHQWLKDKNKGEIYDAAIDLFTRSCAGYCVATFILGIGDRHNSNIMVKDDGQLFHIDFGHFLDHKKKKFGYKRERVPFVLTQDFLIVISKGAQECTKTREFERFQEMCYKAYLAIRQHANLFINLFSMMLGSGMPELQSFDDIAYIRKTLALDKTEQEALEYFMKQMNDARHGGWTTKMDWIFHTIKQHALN
metric: pEC50
On this scale, pEC50 is minus log10 of a concentration expressed in M (mol/L).

For the molecule shown here, C[C@H](Nc1ccc2c(c1)OCCn1cc(N3C(=O)OC[C@H]3C(F)F)nc1-2)C(N)=O [INAVOLISIB] , give the reported pEC50.
7.72

Need pEC50, item NC(=O)[C@@H]1CCCN1c1ccc2c(c1)OCCn1cc(N3CC[C@H](O)C3=O)nc1-2
7.20

Give its pEC50 value. Item: NC(=O)[C@@H](Nc1ccc2c(c1)OCCn1cc(N3C(=O)OC[C@H]3C(F)(F)F)nc1-2)C1CC1
7.28

More entries:
Value lookup for pEC50; key = NC(=O)[C@@H](Nc1ccc2c(c1)OCCn1cc(N3C(=O)OC[C@H]3C(F)F)nc1-2)C1CC1
7.55

----------
test.details: Plasma protein binding in rat assessed as unbound fraction at 5 uM incubated for 4 hrs by equllibrium dialysis method
Type: ADME, cell-free
metric: fraction unbound at 4 h, 5 µM
Answer with a bare number; do not write a unit.

What measured fraction unbound at 4 h, 5 µM goes with C[C@H](Nc1ccc2c(c1)OCCn1cc(N3C(=O)OC[C@H]3C(F)F)nc1-2)C(N)=O ?
0.608

----------
test.details: Apparent permeability across apical to basolateral side in MDCK cells at 10 uM measured upto 180 mins by LC-MS/MS method
Type: ADME, cell-based, Canis lupus familiaris
particulars: dog
metric: Papp A→B at 3 h, 10 µM (×10⁻⁶ cm/s)
Number only, in ×10⁻⁶ cm/s; omit the unit.

Papp A→B at 3 h, 10 µM for NC(=O)[C@@H](Nc1ccc2c(c1)OCCn1cc(N3C(=O)OC[C@H]3C(F)(F)F)nc1-2)C1CC1 ?
1.1

Fill in the blank: the reported Papp A→B at 3 h, 10 µM of CC(C)n1nc(N)nc1-c1cn2c(n1)-c1ccc(O[C@@H](C)C(N)=O)cc1OCC2 is ____.
0.5

Next:
Fill in: Papp A→B at 3 h, 10 µM of CC(C)n1nc(N)nc1-c1cn2c(n1)-c1ccc(N3CCC[C@H]3C(N)=O)cc1OCC2 is ___
0.3

Query (molecule): CC1(C)C(=O)NC(=O)N1c1cn2c(n1)-c1ccc(N3CCC[C@H]3C(N)=O)cc1OCC2 ; field requested: Papp A→B at 3 h, 10 µM
0.3

Quick one: Papp A→B at 3 h, 10 µM of CO[C@H]1CCN(c2cn3c(n2)-c2ccc(N4CCC[C@H]4C(N)=O)cc2OCC3)C1=O ?
2.6

----------
test.details: Dissociation constant, pKa of the compound
Type: physicochemical
metric: pKa
Give the figure by itself; no unit, no explanation.

Given the entry C[C@H](Nc1ccc2c(c1)OCCn1cc(N3C(=O)OC[C@H]3C(F)F)nc1-2)C(N)=O , report its measured pKa.
3.3

----------
target.desc: UniProtKB Q13936
Sequence (Q13936 whole entry): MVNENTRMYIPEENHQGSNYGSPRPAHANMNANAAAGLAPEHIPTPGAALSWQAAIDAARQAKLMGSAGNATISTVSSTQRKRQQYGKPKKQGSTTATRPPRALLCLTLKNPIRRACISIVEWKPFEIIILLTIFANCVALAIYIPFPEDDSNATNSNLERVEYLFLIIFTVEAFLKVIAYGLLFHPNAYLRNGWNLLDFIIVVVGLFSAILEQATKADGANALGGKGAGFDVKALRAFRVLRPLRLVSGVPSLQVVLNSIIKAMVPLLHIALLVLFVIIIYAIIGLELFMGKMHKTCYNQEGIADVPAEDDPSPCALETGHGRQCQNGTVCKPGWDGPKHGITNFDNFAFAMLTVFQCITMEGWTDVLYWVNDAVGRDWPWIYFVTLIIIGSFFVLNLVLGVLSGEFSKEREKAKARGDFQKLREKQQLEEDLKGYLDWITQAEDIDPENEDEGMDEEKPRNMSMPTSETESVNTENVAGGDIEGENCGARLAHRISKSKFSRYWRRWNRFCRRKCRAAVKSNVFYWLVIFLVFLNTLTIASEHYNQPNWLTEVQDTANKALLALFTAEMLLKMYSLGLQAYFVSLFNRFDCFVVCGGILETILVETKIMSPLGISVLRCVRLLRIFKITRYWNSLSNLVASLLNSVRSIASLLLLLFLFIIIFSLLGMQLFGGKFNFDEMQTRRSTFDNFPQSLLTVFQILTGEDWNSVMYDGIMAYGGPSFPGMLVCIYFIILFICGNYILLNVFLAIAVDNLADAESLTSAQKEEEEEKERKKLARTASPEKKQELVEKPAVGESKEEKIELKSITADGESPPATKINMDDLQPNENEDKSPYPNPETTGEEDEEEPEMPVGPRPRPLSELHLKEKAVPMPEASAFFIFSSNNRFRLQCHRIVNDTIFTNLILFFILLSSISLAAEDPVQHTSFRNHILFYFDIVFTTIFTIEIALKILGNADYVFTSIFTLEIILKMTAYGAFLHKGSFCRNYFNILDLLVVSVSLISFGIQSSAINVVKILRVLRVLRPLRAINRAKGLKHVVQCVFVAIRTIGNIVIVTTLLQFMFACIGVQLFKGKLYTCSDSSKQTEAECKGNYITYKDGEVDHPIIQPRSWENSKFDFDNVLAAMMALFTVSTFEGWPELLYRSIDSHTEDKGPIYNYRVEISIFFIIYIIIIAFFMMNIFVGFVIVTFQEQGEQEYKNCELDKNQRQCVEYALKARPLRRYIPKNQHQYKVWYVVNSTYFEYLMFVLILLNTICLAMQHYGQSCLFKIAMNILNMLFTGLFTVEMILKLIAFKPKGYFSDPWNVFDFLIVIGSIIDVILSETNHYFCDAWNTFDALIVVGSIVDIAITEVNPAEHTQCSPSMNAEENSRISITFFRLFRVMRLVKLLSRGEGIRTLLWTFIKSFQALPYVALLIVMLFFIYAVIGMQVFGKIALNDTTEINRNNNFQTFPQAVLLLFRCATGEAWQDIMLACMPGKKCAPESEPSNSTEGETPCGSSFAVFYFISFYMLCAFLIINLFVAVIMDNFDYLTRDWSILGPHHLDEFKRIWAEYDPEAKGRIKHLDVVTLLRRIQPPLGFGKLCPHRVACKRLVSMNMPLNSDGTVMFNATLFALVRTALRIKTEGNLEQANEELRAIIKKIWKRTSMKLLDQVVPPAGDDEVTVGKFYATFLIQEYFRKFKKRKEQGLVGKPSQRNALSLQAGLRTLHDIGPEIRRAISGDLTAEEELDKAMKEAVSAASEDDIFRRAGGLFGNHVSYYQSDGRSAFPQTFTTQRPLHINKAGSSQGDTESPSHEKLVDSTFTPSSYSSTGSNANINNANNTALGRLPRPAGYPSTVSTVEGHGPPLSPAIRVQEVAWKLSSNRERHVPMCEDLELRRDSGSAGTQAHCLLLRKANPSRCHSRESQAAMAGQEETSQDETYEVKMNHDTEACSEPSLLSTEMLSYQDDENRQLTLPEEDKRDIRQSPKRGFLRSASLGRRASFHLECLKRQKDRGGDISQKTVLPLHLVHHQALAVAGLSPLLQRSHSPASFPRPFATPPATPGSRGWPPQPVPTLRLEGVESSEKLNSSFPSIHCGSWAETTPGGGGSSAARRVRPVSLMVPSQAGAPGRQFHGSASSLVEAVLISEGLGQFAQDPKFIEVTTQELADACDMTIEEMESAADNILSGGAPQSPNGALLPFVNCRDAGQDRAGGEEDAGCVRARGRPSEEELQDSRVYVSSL
test.details: Inhibition of human CaV1.2 at 10 uM relative to control
metric: inhibition at 10 µM

What inhibition at 10 µM value was documented for this compound, C[C@H](Nc1ccc2c(c1)OCCn1cc(N3C(=O)OC[C@H]3C(F)F)nc1-2)C(N)=O ?
< 20%

----------
target.desc: hERG (KCNH2) (Homo sapiens, UniProt Q12809)
Sequence (Q12809 whole entry): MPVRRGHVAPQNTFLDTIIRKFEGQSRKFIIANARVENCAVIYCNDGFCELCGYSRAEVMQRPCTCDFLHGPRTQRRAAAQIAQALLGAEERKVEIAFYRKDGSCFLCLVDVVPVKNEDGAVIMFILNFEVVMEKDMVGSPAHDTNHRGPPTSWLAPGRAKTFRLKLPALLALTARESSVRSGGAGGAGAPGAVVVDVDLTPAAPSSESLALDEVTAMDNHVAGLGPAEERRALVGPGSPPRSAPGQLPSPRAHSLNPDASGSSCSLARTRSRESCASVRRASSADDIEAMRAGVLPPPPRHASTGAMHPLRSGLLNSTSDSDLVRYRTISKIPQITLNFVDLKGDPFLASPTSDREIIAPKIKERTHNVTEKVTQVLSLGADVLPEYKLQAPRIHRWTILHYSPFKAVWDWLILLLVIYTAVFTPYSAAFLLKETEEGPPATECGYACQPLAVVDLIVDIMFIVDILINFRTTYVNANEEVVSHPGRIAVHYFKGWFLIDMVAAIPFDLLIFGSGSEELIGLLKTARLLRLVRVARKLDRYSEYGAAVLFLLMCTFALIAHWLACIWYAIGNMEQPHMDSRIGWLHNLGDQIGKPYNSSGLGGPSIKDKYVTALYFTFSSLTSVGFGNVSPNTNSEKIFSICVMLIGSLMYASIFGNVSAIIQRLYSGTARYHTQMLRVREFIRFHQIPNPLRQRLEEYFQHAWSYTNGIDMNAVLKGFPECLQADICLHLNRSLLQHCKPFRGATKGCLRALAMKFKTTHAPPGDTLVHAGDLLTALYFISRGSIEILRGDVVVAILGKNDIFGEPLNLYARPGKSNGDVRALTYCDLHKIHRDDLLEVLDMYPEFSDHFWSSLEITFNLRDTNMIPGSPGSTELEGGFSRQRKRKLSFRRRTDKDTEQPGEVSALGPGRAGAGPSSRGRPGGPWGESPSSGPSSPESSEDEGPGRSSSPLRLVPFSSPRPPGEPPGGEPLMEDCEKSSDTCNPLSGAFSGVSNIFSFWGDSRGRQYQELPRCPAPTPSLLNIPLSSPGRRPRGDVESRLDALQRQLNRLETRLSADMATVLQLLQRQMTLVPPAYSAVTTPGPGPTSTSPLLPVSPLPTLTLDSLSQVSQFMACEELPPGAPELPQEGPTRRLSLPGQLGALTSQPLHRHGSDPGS
test.details: Inhibition of human ERG at 10 uM relative to control
Type: toxicity
metric: inhibition at 10 µM

Need inhibition at 10 µM, item C[C@H](Nc1ccc2c(c1)OCCn1cc(N3C(=O)OC[C@H]3C(F)F)nc1-2)C(N)=O
< 20%

----------
test.details: Clearance in SCID-Beige mouse plasma at 1 mg/kg, iv measured upto 24 hrs by LC-MS/MS analysis
Assay type: ADME, organism-based
metric: clearance (mL/min/kg)
Respond numerically; units are mL/min/kg and should not be typed.

Please look up its clearance: C[C@H](Nc1ccc2c(c1)OCCn1cc(N3C(=O)OC[C@H]3C(F)F)nc1-2)C(N)=O [INAVOLISIB]
37

----------
target.desc: Cytochrome P450 2C19 (Homo sapiens, UniProt P33261)
Sequence (P33261 whole entry): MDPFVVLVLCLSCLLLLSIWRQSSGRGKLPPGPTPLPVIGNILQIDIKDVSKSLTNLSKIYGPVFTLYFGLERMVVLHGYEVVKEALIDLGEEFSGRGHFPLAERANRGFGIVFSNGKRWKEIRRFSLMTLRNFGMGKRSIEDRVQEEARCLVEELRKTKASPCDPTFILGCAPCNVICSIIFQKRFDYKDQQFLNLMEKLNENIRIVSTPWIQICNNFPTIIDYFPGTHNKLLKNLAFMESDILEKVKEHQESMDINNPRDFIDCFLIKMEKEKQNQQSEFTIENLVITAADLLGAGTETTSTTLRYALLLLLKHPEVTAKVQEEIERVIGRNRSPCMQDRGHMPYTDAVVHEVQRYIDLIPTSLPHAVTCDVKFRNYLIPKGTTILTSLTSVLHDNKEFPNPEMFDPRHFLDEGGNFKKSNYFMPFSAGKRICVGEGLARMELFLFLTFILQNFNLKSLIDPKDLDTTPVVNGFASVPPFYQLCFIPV
pIC50: −log10 of the molar value.
metric: pIC50

What value of pIC50 has been recorded for this entry: C[C@H](Nc1ccc2c(c1)OCCn1cc(N3C(=O)OC[C@H]3C(F)F)nc1-2)C(N)=O [INAVOLISIB]
< 5.00

----------
test.details: Lipophilicity, logD of compound in 1-Octanol/PBS at pH 7.4 by LC-MS/MS method
Assay type: physicochemical
The label y is reserved for logD strictly under 1; n covers values equal to or above it.

Just wondering, is logD of NC(=O)[C@@H]1CCCN1c1ccc2c(c1)OCCn1cc(N3C(=O)CC[C@H]3C(F)(F)F)nc1-2 below 1?
n

----------
target.desc: Phosphatidylinositol 4,5-bisphosphate 3-kinase catalytic subunit alpha isoform (Homo sapiens, UniProt P42336)
Sequence (P42336 whole entry, canonical isoform): as the sequence (P42336 whole entry H1047R, canonical isoform) above, with R1047H counted along it
test.details: Inhibition of PI3Kalpha (unknown origin) using PIP2:3PS as substrate in presence of ATP measured after 120 mins by ADP-Glo assay
metric: pKi
In textbook form, pKi equals minus log to base ten of the concentration in mol/L.

Please review the entries below; each comes with its answer.
Fill in: pKi of NC(=O)[C@@H]1CCCN1c1ccc2c(c1)OCCn1cc(N3CC[C@H](O)C3=O)nc1-2 is ___
9.45

# get_value(readout='pKi', item= CC(C)n1nc(N)nc1-c1cn2c(n1)-c1ccc(O[C@@H](C)C(N)=O)cc1OCC2 )
9.97

Entry NC(=O)[C@@H]1CCCN1c1ccc2c(c1)OCCn1cc(N3CCOCCC3=O)nc1-2 has what pKi?
8.42

Others:
Tell me the measured pKi of C[C@H]1CN(c2cn3c(n2)-c2ccc(N4CCC[C@H]4C(N)=O)cc2OCC3)C(=O)O1 , please.
8.19

----------
Overview of reported logD across a group of molecules:
test.details: Lipophilicity, logD of compound in 1-Octanol/PBS at pH 7.4 by LC-MS/MS method
Assay type: physicochemical
Reply briefly: the number, and no unit.

Look over these answered cases.
Looking for the measured logD of NC(=O)[C@@H]1CCCN1c1ccc2c(c1)OCCn1cc(N3CCOCC3=O)nc1-2 , can you help?
0.7

So what's the measured logD for this one? CC(C)[C@@H]1COC(=O)N1c1cn2c(n1)-c1ccc(N3CCC[C@H]3C(N)=O)cc1OCC2
1.8

Please report the recorded logD for NC(=O)[C@@H]1CCCN1c1ccc2c(c1)OCCn1cc(N3CCOC3=O)nc1-2 .
0.6

Which value of logD has been reported for NC(=O)[C@@H](Nc1ccc2c(c1)OCCn1cc(N3C(=O)OC[C@H]3C(F)(F)F)nc1-2)C1CC1 in the records?
1.2

***
# query: logD of entry CC(C)n1nc(N)nc1-c1cn2c(n1)-c1ccc(N3CCC[C@H]3C(N)=O)cc1OCC2
1.5

Form field: reported logD of CC[C@H](Nc1ccc2c(c1)OCCn1cc(N3C(=O)OC[C@H]3C(F)(F)F)nc1-2)C(N)=O
1.4

Given the entry NC(=O)[C@@H]1CCCN1c1ccc2c(c1)OCCn1cc(N3C(=O)OC[C@H]3CF)nc1-2 , report its measured logD.
0.8

What value of measured logD is listed for NC(=O)[C@@H](Nc1ccc2c(c1)OCCn1cc(N3C(=O)OC[C@H]3CF)nc1-2)C1CC1 ?
0.7

What does the record list as logD for NC(=O)[C@@H]1CCCN1c1ccc2c(c1)OCCn1cc(N3CCOCCC3=O)nc1-2 ?
0.7

What does the data say about its logD? Entry: C[C@H](Nc1ccc2c(c1)OCCn1cc(N3C(=O)OC[C@H]3C(F)F)nc1-2)C(N)=O [INAVOLISIB]
0.8

Dear colleague, I am looking for the recorded logD of the following molecule: NC(=O)[C@@H]1CCCN1c1ccc2c(c1)OCCn1cc(N3CCCOCC3=O)nc1-2
0.7

Any idea what its logD is? The molecule is NC(=O)[C@@H]1CCCN1c1ccc2c(c1)OCCn1cc(N3C(=O)OC[C@H]3C(F)(F)F)nc1-2
1.4

Name the reported logD value associated with the molecule NC(=O)[C@@H]1CCCN1c1ccc2c(c1)OCCn1cc(N3CC[C@H](O)C3=O)nc1-2
0.4

Fill blank: measured logD of the molecule COC[C@@H]1COC(=O)N1c1cn2c(n1)-c1ccc(N3CCC[C@H]3C(N)=O)cc1OCC2 is ____.
0.8

I have this molecule here, CC(C)[C@H](Nc1ccc2c(c1)OCCn1cc(N3C(=O)OC[C@H]3C(F)(F)F)nc1-2)C(N)=O , and I need its recorded logD.
1.7

Query (molecule): C[C@H](Nc1ccc2c(c1)OCCn1cc(N3C(=O)OC[C@H]3C(F)(F)F)nc1-2)C(N)=O ; field requested: logD
0.9

----------
test.details: Plasma protein binding in human assessed as unbound fraction at 5 uM incubated for 4 hrs by equllibrium dialysis method
Format: ADME, cell-free
metric: fraction unbound at 4 h, 5 µM
Simply state the number, no unit and no words.

Need fraction unbound at 4 h, 5 µM, item C[C@H](Nc1ccc2c(c1)OCCn1cc(N3C(=O)OC[C@H]3C(F)F)nc1-2)C(N)=O [INAVOLISIB]
0.589
